Origin of measurements: the DeepSol protein solubility set

Experiment Summary: soluble on expression in E. coli; label from the status in PepcDB or PDB records
Property Measured: soluble on expression in E. coli

{"columns": ["Seq String", "Property Measured", "Result"],
 "data": [
  ["MGSDKIHHHHHHMLNKLCMYLERPELYKQSEINFWDDEYISKQLLKAHLDTNFEGASRNFNFIEDSVNWIVTVANPANYPKLLDLGCGPGLYAEKFAQKGYKVTGIDFSKRSINYAQNRNKETNLNINYLFQSYLNMNYNEEFDLATLIYCDYGALSTENRRLLMEKIYDSLKPGGKLILDVFTINKYNNFEEIKYWEINEDGGFWSNEKYMCLQDNCKYNDYNTLEQTLVITEKDENVFYVWNHYFSKESFLLEVENIGFKSVEFFSNVKGEAYSDDSMTMGLVLQK", "soluble on expression in E. coli", "not soluble"],
  ["MGSDKIHHHHHHMKIGVFSVLFYDKNFEDMLDYVAESGLDMIEVGTGGNPGDKFCKLDELLENEDKRQAFMKSITDRGLQISGFSCHNNPISPDPIEAKEADETLRKTIRLANLLDVPVVNTFSGIAGSDDTAKKPNWPVTPWPTAYSEIYDYQWNEKLIPYWQDLAEFAKEQDVKIAIELHAGFLVHTPYTMLKLREATNEYIGANLDPSHLWWQGIDPIAAIRILGQANAIHHFHAKDTYINQENVNMYGLTDMQPYGNVATRAWTFRTVGYGHSPYVWADIISQLIINGYDYVLSIEHEDPIMSVEEGFQKACQTLKSVNIYDKPADMWWA", "soluble on expression in E. coli", "not soluble"]
]}
